- EXPERIMENTAL SYSTEM: kinase domain protein of RC kinase (Homo sapiens)
- Sequence (Q56UN5 1061-1324 limits assumed): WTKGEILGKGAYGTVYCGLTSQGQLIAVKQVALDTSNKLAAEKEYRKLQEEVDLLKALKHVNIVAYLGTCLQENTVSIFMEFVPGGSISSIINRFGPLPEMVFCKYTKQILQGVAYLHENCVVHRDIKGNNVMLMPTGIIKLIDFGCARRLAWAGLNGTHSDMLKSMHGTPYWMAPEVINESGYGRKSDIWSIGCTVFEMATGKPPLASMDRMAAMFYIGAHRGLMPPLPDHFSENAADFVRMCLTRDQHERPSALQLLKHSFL
- EXPERIMENT SUMMARY: Enzymatic assay for kinase inhibitory activity (Crebtide substrate, LANCE read-out)
- Type: biochemical
- CONDITION PARAMETERS: compound at 1 μM
MEASUREMENT LABEL: inhibition at 1 µM

* N#Cc1c(Nc2cccc(Cl)c2)n[nH]c1/N=C/c1ccc(-c2ccccn2)s1 [Compound A2] | 20 to 50%
* N#Cc1c(Nc2cccc(Cl)c2)n[nH]c1N=Cc1ccc(O)c([N+](=O)[O-])c1 [Compound A5] | 20 to 50%
* NC(=O)c1c(Nc2cccc(Cl)c2)n[nH]c1/N=C/c1ccc(OCc2ccc(F)cc2)cc1 [Compound B107] | ≤ 5%
* N#Cc1c(Nc2cccc(Cl)c2)n[nH]c1/N=C/c1cncc(N2CCCC2)c1 [Compound A86] | ≤ 5%
* NC(=O)c1c(Nc2cccc(Cl)c2)n[nH]c1/N=C/c1cnccn1 [Compound B80] | ≤ 5%
* COc1ccc(C(F)(F)F)cc1/C=N/c1[nH]nc(Nc2cccc(Cl)c2)c1C#N [Compound A75] | ≤ 5%
* COc1cc(/C=N/c2[nH]nc(Nc3cccc(Cl)c3)c2C(N)=O)ccc1O [Compound B7] | ≥ 50%
* N#Cc1c(Nc2ccc(Cl)cc2)n[nH]c1/N=C/c1ccc(O)cc1 [Compound A32] | 5 to 20%

###

A collection of compounds and their measured melting point
MEASUREMENT LABEL: melting point

- COc1cc(/C=N/c2[nH]nc(Nc3cccc(Cl)c3)c2C(N)=O)ccc1O: 268 to 270 °C
- N#Cc1c(Nc2cccc(Cl)c2)n[nH]c1/N=C/c1ccc(Oc2ncccn2)cc1: 224 to 230 °C
- COc1ccc(C=Nc2[nH]nc(Nc3cccc(Cl)c3)c2C(N)=O)cc1: 295 to 297 °C
- COc1ccc(C(F)(F)F)cc1/C=N/c1[nH]nc(Nc2cccc(Cl)c2)c1C#N: 189 to 197 °C
- N#Cc1c(Nc2cccc(Cl)c2)n[nH]c1/N=C/c1c[nH]c2c(F)c(F)c(F)c(F)c12: 343 to 347 °C
- NC(=O)c1c(Nc2ccc(Cl)cc2)n[nH]c1/N=C/c1ccc(O)cc1O: 243 to 246 °C
- COc1ccc(/C=N/c2[nH]nc(Nc3cccc(Cl)c3)c2C#N)cc1F: 217 to 220 °C
- COc1ccccc1/C=N/c1[nH]nc(Nc2ccccc2)c1C#N: 202 to 206 °C

###

MEASUREMENT LABEL: melting point

• COc1ccc(/C=N/c2[nH]nc(Nc3ccccc3Cl)c2C(N)=O)cc1 = 288 to 292 °C
• COc1ccc(Nc2n[nH]c(/N=C/c3ccc(O)c([N+](=O)[O-])c3)c2C#N)cc1 = 274 to 275 °C
• N#Cc1c(Nc2cccc(Cl)c2)n[nH]c1/N=C/c1cccn1S(=O)(=O)c1ccccc1 = 217 to 225 °C
• N#Cc1c(Nc2cccc(Cl)c2)n[nH]c1/N=C/c1ccc(-n2cncn2)cc1 = 284 to 288 °C
• NC(=O)c1c(Nc2ccc(Cl)cc2)n[nH]c1/N=C/c1ccc[nH]1 = 273 to 277 °C
• N#Cc1c(Nc2cccc(Cl)c2)n[nH]c1/N=C/c1ccc(Oc2ccc(C(F)(F)F)cn2)cc1 [Compound A112] = 268 to 270 °C
• COc1ccc(/C=N/c2[nH]nc(Nc3ccc(OC)cc3)c2C#N)cc1 = 246 to 250 °C
• N#Cc1c(Nc2cccc(Cl)c2)n[nH]c1/N=C/c1cnc(N)s1 = 221 to 225 °C

###

A collection of compounds and their measured melting point
MEASUREMENT LABEL: melting point

* COc1ccc(/C=N/c2[nH]nc(Nc3ccccc3)c2C(N)=O)cc1 [Compound B13] | 257 to 260 °C
* NC(=O)c1c(Nc2cccc(Cl)c2)n[nH]c1/N=C/c1ccc(Cl)cc1 [Compound B4] | 303 to 305 °C
* COc1ccccc1/C=N/c1[nH]nc(Nc2ccc(Cl)cc2)c1C(N)=O [Compound B34] | 270 to 273 °C
* NC(=O)c1c(Nc2cccc(Cl)c2)n[nH]c1N=Cc1ccc(O)c([N+](=O)[O-])c1 [Compound B2] | 296 to 298 °C

###

MEASUREMENT LABEL: melting point

• N#Cc1c(Nc2cccnc2)n[nH]c1/N=C/c1ccc(O)cc1 = 311 to 314 °C
• NC(=O)c1c(Nc2ccccc2Cl)n[nH]c1/N=C/c1ccc([N+](=O)[O-])c(O)c1 = 294 to 296 °C
• COc1ccc(/C=N/c2[nH]nc(Nc3ccc(Cl)cc3)c2C#N)cc1 = 290 to 291 °C
• N#Cc1c(Nc2cccc(Cl)c2)n[nH]c1/N=C/c1ccccc1 = 260 to 264 °C
• Cc1cc(F)ccc1/C=N/c1[nH]nc(Nc2cccc(Cl)c2)c1C#N = 253 to 257 °C
• CC(C)(C)c1ccc(Nc2n[nH]c(/N=C/c3ccc(Cl)cc3)c2C#N)cc1 = 288 to 290 °C
• N#Cc1c(Nc2cccc(Cl)c2)n[nH]c1/N=C/c1ccc(-c2ccccn2)cc1 = 326 to 329 °C
• NC(=O)c1c(Nc2cccc(Cl)c2)n[nH]c1/N=C/c1cc(Cl)ccc1O = 283 to 287 °C

###

- EXPERIMENTAL SYSTEM: kinase domain protein of RC kinase (Homo sapiens)
- EXPERIMENT SUMMARY: Enzymatic assay for kinase inhibitory activity (Crebtide substrate, LANCE read-out)
- Format: biochemical
- CONDITION PARAMETERS: compound at 1 μM
A collection of compounds and their measured inhibition at 1 µM
MEASUREMENT LABEL: inhibition at 1 µM

- N#Cc1c(Nc2cccc(Cl)c2)n[nH]c1/N=C/c1ccc(Cl)cc1O [Compound A91]: ≤ 5%
- N#Cc1c(Nc2cccc(Cl)c2)n[nH]c1/N=C/c1ccc(N2CCOCC2)nc1 [Compound A79]: ≤ 5%
- NC(=O)c1c(Nc2cccc(Cl)c2)n[nH]c1/N=C/c1ncc(Cl)nc1Cl [Compound B78]: ≤ 5%
- N#Cc1c(NC2CC2)n[nH]c1/N=C/c1ccc(O)cc1 [Compound A48]: ≤ 5%
- N#Cc1c(Nc2cccc(Cl)c2)n[nH]c1/N=C/c1ccc(-c2ccccn2)cc1 [Compound A84]: ≤ 5%
- N#Cc1c(Nc2ccccc2)n[nH]c1/N=C/c1ccc(O)cc1 [Compound A22]: ≤ 5%
- NC(=O)c1c(Nc2ccccc2Cl)n[nH]c1/N=C/c1ccc(O)c([N+](=O)[O-])c1 [Compound B113]: 5 to 20%
- NC(=O)c1c(Nc2ccc(Cl)cc2)n[nH]c1/N=C/c1ccc[nH]1 [Compound B20]: 20 to 50%

###

A collection of compounds and their measured melting point
MEASUREMENT LABEL: melting point

* NC(=O)c1c(Nc2cccc(Cl)c2)n[nH]c1/N=C/c1cc(Br)ccc1O [Compound B49] | 281 to 283 °C
* COc1cccc(/C=N/c2[nH]nc(Nc3ccc(Cl)cc3)c2C(N)=O)c1 [Compound B33] | 279 to 283 °C
* NC(=O)c1c(Nc2ccc(Cl)cc2)n[nH]c1/N=C/c1ccc(Cl)cc1 [Compound B24] | 307 to 309 °C
* N#Cc1c(Nc2ccccc2)n[nH]c1/N=C/c1ccccc1 [Compound A9] | 257 to 260 °C
* NC(=O)c1c(Nc2ccc(Cl)cc2)n[nH]c1/N=C/c1ccc(O)c([N+](=O)[O-])c1 [Compound B22] | 295 to 297 °C
* N#Cc1c(Nc2cccc(Cl)c2)n[nH]c1/N=C/c1ccc(F)cc1O [Compound A98] | 232 to 238 °C
* COc1ccc(Nc2n[nH]c(/N=C/c3ccc([N+](=O)[O-])cc3)c2C#N)cc1 [Compound A46] | 242 to 248 °C
* COc1ccc(/C=N/c2[nH]nc(Nc3cccc(Cl)c3)c2C#N)cc1 [Compound A13] | 263 to 266 °C
* N#Cc1c(Nc2cccc(Cl)c2)n[nH]c1/N=C/c1ccc2snnc2c1 [Compound A90] | 276 to 281 °C
* NC(=O)c1c(Nc2ccccc2)n[nH]c1/N=C/c1ccc(Cl)cc1 [Compound B12] | 291 to 293 °C
* COc1ccc(Nc2n[nH]c(/N=C/c3ccc(O)cc3)c2C#N)cc1 [Compound A54] | 193 to 197 °C
* N#Cc1ccc(/C=N/c2[nH]nc(Nc3cccc(Cl)c3)c2C#N)cc1 [Compound A102] | 266 to 274 °C
* COc1ccccc1/C=N/c1[nH]nc(Nc2cccc(Cl)c2)c1C(N)=O [Compound B18] | 270 to 273 °C
* N#Cc1c(Nc2cccc(Cl)c2)n[nH]c1/N=C/c1ccc(Cl)cc1 [Compound A12] | 283 to 286 °C
* NC(=O)c1c(Nc2ccc(Cl)cc2)n[nH]c1/N=C/c1ccccc1 [Compound B21] | 303 to 306 °C
* N#Cc1c(Nc2ccc(Cl)cc2)n[nH]c1/N=C/c1ccc(O)cc1 [Compound A32] | 286 to 288 °C
